Values were extracted from the NIST ThermoML archive (doi:10.1021/acs.jced.8b00765).

experiment: refractive index (Na D-line) (dimensionless); conditions: 293.15 K; 101.33 kPa; Liquid; Standard Abbe refractometry
READOUT NAME: refractive index
Give bare numbers.

The following compounds have reported results that may help.
CCCCC | 1.358
C=CCCCC | 1.388
CC(C)O | 1.377

# ---- query compound ----
So what does the record say about refractive index for `C1CCCCC1` ?
1.426
